Reference source for all entries: patent US11028051B2

Target: BRD3-BD1 (Homo sapiens (Human), UniProt Q15059)
Sequence (Q15059 34-140): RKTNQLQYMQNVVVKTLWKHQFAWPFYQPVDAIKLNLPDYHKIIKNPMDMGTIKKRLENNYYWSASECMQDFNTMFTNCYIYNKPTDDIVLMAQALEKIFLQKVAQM
Assay: competitive TR-FRET assay, BET-BD with acetylated peptide ligand
Type: binding
Settings: BRD3-BD1; Table 11 additional modifications; read-out: 3.1 EC50
pEC50: −log10 of the molar value.
measured_property: pEC50

CC(=O)N1c2ccc(-c3cccc(NCCC(C)(C)C)c3)cc2[C@H](NC(=O)OC(C)C)C[C@@H]1C :: 6.01
CC(=O)N1c2ccc(-c3coc4ccccc34)cc2[C@H](NC(=O)OC(C)C)C[C@@H]1C :: 5.47
CC(=O)Nc1cccc(-c2ccc3c(c2)[C@H](Nc2ccc(N(C)C)cc2)C[C@H](C)N3C(C)=O)c1 :: 5.68
CC(=O)Nc1cccc(-c2ccc3c(c2)[C@H](Nc2ccc([N+](=O)[O-])cc2)C[C@H](C)N3C(C)=O)c1 :: 5.92
CCCCNc1cccc(-c2ccc3c(c2)[C@H](NC(=O)OC(C)C)C[C@H](C)N3C(C)=O)c1 :: 6.92

[A] CC(=O)N1c2ccc(-c3cccc(NC(=O)C(C)(C)C)c3)cc2[C@H](NC(=O)OC(C)C)C[C@@H]1C
[B] CCCCN(CCCC)c1cccc(-c2ccc3c(c2)[C@H](Nc2ccc(C(=O)OC)cc2)C[C@H](C)N3C(C)=O)c1
[C] CCCOc1cccc(-c2ccc3c(c2)[C@H](Nc2ccc(F)cc2OC)C[C@H](C)N3C(C)=O)c1
Ask | Sort low-to-high on pEC50, please. Order the labels as requested and give them as your answer.
Reply | C, B, A

---

Target: BRDT (Homo sapiens)
Experiment: competitive TR-FRET assay, BET-BD with acetylated peptide ligand
Format: binding
Conditions: BRDT; Table 11 additional modifications; read-out: BRDT EC50
pEC50: −log10 of the molar value.
measured_property: pEC50

[I] CC(=O)Nc1cccc(-c2ccc3c(c2)[C@H](Nc2ccc(-c4nnn(C)n4)cc2)C[C@H](C)N3C(C)=O)c1
[II] CCCC(=O)Nc1cccc(-c2ccc3c(c2)[C@H](NC(=O)OC(C)C)C[C@H](C)N3C(C)=O)c1
Ask | Param metric = pEC50; output whichever of I , II has the minimum value. Return value: the label identifying the chosen record.
Reply | II

[I] CCCCNc1cccc(-c2ccc3c(c2)[C@H](NC(=O)OC(C)C)C[C@H](C)N3C(C)=O)c1
[II] CCC(=O)Nc1cccc(-c2ccc3c(c2)[C@H](NC(=O)OC(C)C)C[C@H](C)N3C(C)=O)c1
[III] CC(=O)Nc1cccc(-c2ccc3c(c2)[C@H](Nc2ccc(C(C)=O)cc2)C[C@H](C)N3C(C)=O)c1
[IV] CC(=O)N1c2ccc(-c3cccc(NC(=O)C(C)(C)C)c3)cc2[C@H](NC(=O)OC(C)C)C[C@@H]1C
Ask | Rank order required: pEC50, descending. Your task in answering is to list the labels in the requested order.
Reply | II, III, IV, I
(II: 6.48, III: 5.34, IV: 5.12, I: 4.28)

[A] CC(=O)N1c2ccc(-c3cccc(NCCCc4ccccc4)c3)cc2[C@H](NC(=O)OC(C)C)C[C@@H]1C
[B] CC(=O)Nc1cccc(-c2ccc3c(c2)[C@H](Nc2ccc(N(C)C(C)=O)cc2)C[C@H](C)N3C(C)=O)c1
Ask | Form field 'greater pEC50' accepts A or B ; which applies? Reply with the label of the item you choose.
Reply | B
(B: 5.37, A: 4.96)

[I] C#CCCCC(=O)Nc1cccc(-c2ccc3c(c2)[C@H](Nc2ccc(C(=O)OC)cc2)C[C@H](C)N3C(C)=O)c1
[II] COc1cccc(N[C@@H]2C[C@H](C)N(C(C)=O)c3ccc(-c4cccc(NC(C)=O)c4)cc32)c1
Ask | // max by pEC50 over [ I , II ] Use the label to indicate which entry you chose.
Reply | II

---

Biological target: BRD2-BD2 (Homo sapiens (Human), UniProt P25440)
Sequence (P25440 344-453): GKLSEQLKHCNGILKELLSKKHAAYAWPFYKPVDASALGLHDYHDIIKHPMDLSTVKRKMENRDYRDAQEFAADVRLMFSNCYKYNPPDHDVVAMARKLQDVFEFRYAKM
Test: competitive TR-FRET assay, BET-BD with acetylated peptide ligand
Type: binding
Details: ratio of BRD2-BD1 EC50 to BRD2-BD2 EC50 (selectivity)
Method: Inhibitor potency was determined using a competitive TR-FRET assay as detailed herein, measuring interaction of the respective BET-BD with an acetylated peptide ligand (Table 2).
measured_property: 2.1/2.2

Example entries and their recorded answers appear below.
CC(=O)N1c2ccc(-c3cc[nH]n3)cc2[C@H](Nc2ccccc2OC(F)(F)F)C[C@@H]1C :: 140
CC(=O)Nc1cccc(-c2ccc3c(c2)[C@H](Nc2ccc4c(c2)COC4=O)C[C@H](C)N3C(C)=O)c1 :: 31
CC(=O)Nc1cccc(-c2ccc3c(c2)[C@H](NCCCc2ccccc2)C[C@H](C)N3C(C)=O)c1 :: 0.23
COC(=O)c1ccc(N[C@@H]2C[C@H](C)N(C(C)=O)c3ccc(-c4cccc(NC(C)=O)c4)cc32)c(OC)c1 :: 20

[A] CC(=O)Nc1cccc(-c2ccc3c(c2)[C@H](NC(=O)Cc2ccccc2)C[C@H](C)N3C(C)=O)c1
[B] CC(=O)Nc1cccc(-c2ccc3c(c2)[C@H](NC(=O)C(C)C)C[C@H](C)N3C(C)=O)c1 [compound 65]
[C] COC(=O)c1ccc(N[C@@H]2C[C@H](C)N(C(C)=O)c3ccc(-c4cccc(NCC5CC5)c4)cc32)cc1
Ask | Please order the records by their reported 2.1/2.2, lowest number first. # format: label list in the order the request specifies
Reply | C, B, A
(C: 0.015, B: 1.4, A: 4.1)

---

Molecular target: UniProtKB Q58F21
Experiment: competitive TR-FRET assay, BET-BD with acetylated peptide ligand
Assay type: binding
Conditions: BRDT; Table 11 additional modifications; read-out: BRDT EC50
measured_property: EC50 (µM)

Below, 2 molecules whose answers are already recorded.
CC(=O)N1c2ccc(-c3cccc(NCc4ccc(C)cc4)c3)cc2[C@H](NC(=O)OC(C)C)C[C@@H]1C :: 4.8
COC(=O)c1ccc(N[C@@H]2C[C@H](C)N(C(C)=O)c3ccc(-c4cccc(NCCC(C)C)c4)cc32)cc1 :: 8.3

[1] CC(=O)N1c2ccc(-c3cccc(NC(=O)CC(C)C)c3)cc2[C@H](NC(=O)OC(C)C)C[C@@H]1C
[2] COC(=O)c1ccc(N[C@@H]2C[C@H](C)N(C(C)=O)c3ccc(-c4cccc(NC(C)=O)c4)cc32)c(OC)c1
[3] COC(=O)c1cccc(N[C@@H]2C[C@H](C)N(C(C)=O)c3ccc(-c4cccc(NC(C)=O)c4)cc32)c1
Ask | Would you mind ranking these molecules by ascending EC50? List each label, following the requested order.
Reply | 2, 1, 3

[I] CC(=O)N1c2ccc(-c3ccn(C)n3)cc2[C@H](Nc2ccccc2OC(F)(F)F)C[C@@H]1C
[II] CC(=O)N1c2ccc(-c3cccc(NCC4CCOC4)c3)cc2[C@H](NC(=O)OC(C)C)C[C@@H]1C (stereo partly shown)
Ask | Could you point out whether the larger EC50 belongs to I or to II ? Write the label of whichever entry you select.
Reply | I

[A] CC(=O)N1c2ccc(-c3cccc(NS(C)(=O)=O)c3)cc2[C@H](NC(=O)OC(C)C)C[C@@H]1C
[B] CC(=O)Nc1cccc(-c2ccc3c(c2)[C@H](NC(=O)OC(C)C)C[C@H](C)N3C(C)=O)c1
[C] CCCOc1cccc(-c2ccc3c(c2)[C@H](Nc2ccc(C(=O)OC)cc2)C[C@H](C)N3C(C)=O)c1
[D] CC(=O)N1c2ccc(-c3cccc(NCC4CCOC4)c3)cc2[C@H](Nc2ccccc2OC(F)(F)F)C[C@@H]1C (stereo partly shown)
Ask | Exam item: list the entries in increasing order of EC50. As an answer, provide the labels arranged in the order called for.
Reply | A, B, C, D

[P] CC(=O)N1c2ccc(-c3c[nH]c4ccccc34)cc2[C@H](NC(=O)OC(C)C)C[C@@H]1C
[Q] CC(=O)Nc1cccc(-c2ccc3c(c2)[C@H](Nc2ccc(C(=O)N(C)C)cc2)C[C@H](C)N3C(C)=O)c1
[R] COc1cccc(-c2ccc3c(c2)[C@H](Nc2ccc(Cl)cc2)C[C@H](C)N3C(C)=O)c1
[S] CCCCOc1cccc(-c2ccc3c(c2)[C@H](Nc2ccc(C(=O)OC)cc2)C[C@H](C)N3C(C)=O)c1
Ask | Rank items: key EC50, increasing. Output the labels ranked as instructed.
Reply | Q, P, R, S
(Q: 1.2 µM, P: 4.9 µM, R: 17 µM, S: 32 µM)

---

Biological target: BRD2-BD2 (Homo sapiens (Human), UniProt P25440)
Test: competitive TR-FRET assay, BET-BD with acetylated peptide ligand
Format: binding
Details: ratio of BRD2-BD1 EC50 to BRD2-BD2 EC50 (selectivity)
measured_property: 2.1/2.2

CCCN(CCC)c1cccc(-c2ccc3c(c2)[C@H](Nc2ccccc2OC(F)(F)F)C[C@H](C)N3C(C)=O)c1 :: 2.6
C#CCCCC(=O)Nc1cccc(-c2ccc3c(c2)[C@H](Nc2ccc(C(=O)OC)cc2)C[C@H](C)N3C(C)=O)c1 :: 36
CC(=O)N1c2ccc(-c3ccc4cc[nH]c4c3)cc2[C@H](NC(=O)OC(C)C)C[C@@H]1C :: 2.6
CC(=O)Nc1cccc(-c2ccc3c(c2)[C@H](Nc2ccccc2Cl)C[C@H](C)N3C(C)=O)c1 :: 39
CC(=O)N1c2ccc(-c3cccn(C)c3=O)cc2[C@H](NC(=O)OC(C)C)C[C@@H]1C :: 5.4
CC(=O)Nc1ccc(-c2ccc3c(c2)[C@H](Nc2ccc(Cl)cc2)C[C@H](C)N3C(C)=O)cc1 :: 5.3

[a] CC(=O)N1c2ccc(-c3ccc(Oc4ccccc4)cc3)cc2[C@H](NC(=O)OC(C)C)C[C@@H]1C
[b] CCCCN(CCCC)c1cccc(-c2ccc3c(c2)[C@H](Nc2ccccc2OC(F)(F)F)C[C@H](C)N3C(C)=O)c1
Ask | Between a and b , which one shows the larger 2.1/2.2 value? API: response body contains the label of the selected item.
Reply | b

[P] COC(=O)c1ccc(N[C@@H]2C[C@H](C)N(C(C)=O)c3ccc(-c4c[nH]cn4)cc32)cc1
[Q] CC(=O)Nc1cccc(-c2ccc3c(c2)[C@H](NC(=O)c2ccc(C(F)(F)F)cc2)C[C@H](C)N3C(C)=O)c1
Ask | Between P and Q , which one shows the larger 2.1/2.2 value? Answer by quoting the chosen item's label.
Reply | Q
(Q: 28, P: 9.4)

[a] CC(=O)N1c2ccc(-c3cccc(NCc4ccc(C)cc4)c3)cc2[C@H](NC(=O)OC(C)C)C[C@@H]1C
[b] CC(=O)N1c2ccc(-c3c[nH]c4ccccc34)cc2[C@H](NC(=O)OC(C)C)C[C@@H]1C
Ask | Between the two listed entries a and b , which has its 2.1/2.2 at the higher number? Which one? Tell me its label.
Reply | a
(a: 13, b: 0.032)
